target: Human immunodeficiency virus type 1 protease (Human immunodeficiency virus 1); test: Anti-HIV-1 activity against mutant HIV-1 in MT-4 cells (mutation selected with saquinavir); format: functional, cell-based; conditions: MT4
ED50 by entry:
Value expressed in nM; do not type the unit.

Q: What value of ED50 has been recorded for this entry: CNC(=O)[C@@H](NC(=O)[C@H](OCc1ccc(F)c(F)c1)[C@H](O)[C@@H](O)[C@@H](OCc1ccc(F)c(F)c1)C(=O)N[C@H](C(=O)NC)C(C)C)C(C)C
Ans: 810

Q: Now try O=C(NC1c2ccccc2C[C@H]1O)[C@H](OCc1ccc(F)c(F)c1)[C@H](O)[C@@H](O)[C@@H](OCc1ccc(F)c(F)c1)C(=O)N[C@H]1c2ccccc2C[C@H]1O (stereo partly specified) .
Ans: 160

====

tested on: Human immunodeficiency virus 1; experiment: Anti-HIV-1 activity against Wild type virus. in MT-4 cells; format: functional; conditions: Human immunodeficiency virus 1, MT4; read-out: ED50 (the source's name)
REPORTED METRIC: EC50

Q: What value of EC50 has been recorded for this entry: CNC(=O)[C@@H](NC(=O)[C@H](OCc1ccccc1)[C@H](O)[C@@H](O)[C@@H](OCc1ccccc1)C(=O)N[C@H](C(=O)NC)C(C)C)C(C)C
Ans: 1320 nM

====

biological target: Human immunodeficiency virus type 1 protease (Human immunodeficiency virus 1) (UniProt Q72874); experiment: Anti-HIV-1 activity against mutant HIV-1 in MT-4 cells (mutation selected with ritonavir); type: functional, cell-based; conditions: MT4
REPORTED METRIC: log10 of ED50 (log10 of the value in nM)
Parameter value (number): base-10 log of ED50 in nM.

Record excerpt, results attached:
MOLECULE	REPORTED METRIC	EXPERIMENTAL RESULT
CNC(=O)[C@@H](NC(=O)[C@H](OCc1cccc(F)c1)[C@H](O)[C@@H](O)[C@@H](OCc1cccc(F)c1)C(=O)N[C@H](C(=O)NC)C(C)C)C(C)C	log10 of ED50	3.23
CNC(=O)[C@@H](NC(=O)[C@H](OCc1ccccc1F)[C@H](O)[C@@H](O)[C@@H](OCc1ccccc1F)C(=O)N[C@H](C(=O)NC)C(C)C)C(C)C	log10 of ED50	3.87
CNC(=O)[C@@H](NC(=O)[C@H](OCc1cccc(F)c1F)[C@H](O)[C@@H](O)[C@@H](OCc1cccc(F)c1F)C(=O)N[C@H](C(=O)NC)C(C)C)C(C)C	log10 of ED50	3.35
Cc1c(O)cccc1C(=O)N[C@@H](CSc1ccccc1)[C@H](O)CN1C[C@H]2CCCC[C@H]2C[C@H]1C(=O)NC(C)(C)C	log10 of ED50	2.04
CNC(=O)[C@@H](NC(=O)[C@H](OCc1cc(F)ccc1F)[C@H](O)[C@@H](O)[C@@H](OCc1cc(F)ccc1F)C(=O)N[C@H](C(=O)NC)C(C)C)C(C)C	log10 of ED50	4.04

Could you now look at the following molecule, please?
Q: What value of log10 of ED50 has been recorded for this entry: CNC(=O)[C@@H](NC(=O)[C@H](OCc1cc(F)cc(F)c1)[C@H](O)[C@@H](O)[C@@H](OCc1cc(F)cc(F)c1)C(=O)N[C@H](C(=O)NC)C(C)C)C(C)C
Ans: 3.15
